Reference source for all entries: patent US7772241B2

# System: IGROV-ET
# assay.details: Inhibition of cells growth by colorimetric (SRB) assay, IGROV-ET
# setup.conditions: read-out: LC50 IGROV-ET; SRB assay, 48 hours exposure
# CC50 annotations
observed.property: CC50 (µM)

{"compound": "Cl.Nc1nccc(-c2c3c(N)ccnc3n3c(N)nccc23)n1", "value.prefix": "=", "reported.value": 24.9}
{"compound": "COc1nccc(-c2c3cccnc3n3c(N)nccc23)n1", "value.prefix": "≥", "reported.value": 34.2}
{"compound": "COc1ccnc2c1c(-c1ccnc(N)n1)c1ccnc(N)n12.Cl", "value.prefix": "=", "reported.value": 26.3}
{"compound": "Cl.Nc1nccc2c(-c3ccncn3)c3c(O)ccnc3n12", "value.prefix": "≥", "reported.value": 33.9}
{"compound": "Cc1ccc2c(-c3ccnc(N)n3)c3ccnc(N)n3c2n1", "value.prefix": "≥", "reported.value": 34.3}
{"compound": "Nc1nccc(-c2c3cc4ccccc4nc3n3c(N)nccc23)n1 [Compound 19a]", "value.prefix": "=", "reported.value": 14.5}
{"compound": "CCOc1nccc(-c2c3cccnc3n3c(N)nccc23)n1", "value.prefix": "≥", "reported.value": 32.6}

###

# Tested on: DU-145
# assay.details: Inhibition of cells growth by colorimetric (SRB) assay, DU-145
# setup.conditions: read-out: DU-145 LC50; SRB assay, 48 hours exposure
Here the recorded CC50 is given for each entry.

{"test.smiles": "CSc1nccc(-c2c3c(O)ccnc3n3c(N)nccc23)n1.Cl", "value.prefix": "=", "CC50 (µM)": 12.8}
{"test.smiles": "CSc1nccc(-c2c3c(O)ccnc3n3c(N)nccc23)n1", "value.prefix": "≥", "CC50 (µM)": 30.8}

###

# Tested on: HeLa-APL
# assay.details: Inhibition of cells growth by colorimetric (SRB) assay, HeLa-APL
# setup.conditions: Homo sapiens, 48 h, read-out: HELA-APL LC50, SRB assay, 48 hours exposure
# log10 CC50 per record follows
observed.property: log10 CC50 (log10 of the value in µM)

{"compound": "Nc1nccc(-c2c3cccnc3n3c(N)nccc23)n1 [Deoxyvariolin 4, deoxyvariolin B, reference compound]", "measured.on": "HeLa-APL", "reported.value": -0.50}
{"compound": "CSc1nccc(-c2c3cccnc3n3c(NC(C)=O)nccc23)n1", "measured.on": "HeLa-APL", "reported.value": -0.42}
{"compound": "CS(=O)(=O)c1nccc(-c2c3cccnc3n3c(N)nccc23)n1", "measured.on": "HeLa-APL", "reported.value": 0.86}
{"compound": "CSc1nccc(-c2c3c(Cl)ccnc3n3c(N)nccc23)n1.Cl", "measured.on": "HeLa-APL", "reported.value": 1.42}
{"compound": "Cl.Nc1nccc(-c2c3c(Cl)ccnc3n3c(N)nccc23)n1", "measured.on": "HeLa-APL", "reported.value": -0.59}
{"compound": "CSc1nccc(-c2c3ccc(C)nc3n3c(N)nccc23)n1", "measured.on": "HeLa-APL", "reported.value": 0.90}
{"compound": "CSc1nccc(-c2c3cc4ccccc4nc3n3c(N)nccc23)n1 [Compound 18a]", "measured.on": "HeLa-APL", "reported.value": 0.82}
{"compound": "CSc1nccc(-c2c3cccnc3n3c(N(C(C)=O)C(C)=O)nccc23)n1", "measured.on": "HeLa-APL", "reported.value": -0.64}
{"compound": "CSc1nccc(-c2c3cccnc3n3c(N)nccc23)n1.Cl", "measured.on": "HeLa-APL", "reported.value": -0.18}
{"compound": "CSc1nccc(-c2c3c(N)ccnc3n3c(N)nccc23)n1.Cl", "measured.on": "HeLa-APL", "reported.value": -1.54}

###

Examples of molecules with documented CC50 follow.
# System: PANC-1
# assay.details: Inhibition of cells growth by colorimetric (SRB) assay, PANC-1
# setup.conditions: Homo sapiens, PANC-1, 48 h, read-out: PANC-1 LC50, SRB assay, 48 hours exposure
# Description: The finality of these assays is to interrupt the growth of a “in vitro” tumor cell culture by means a continued exhibition of the cells to the sample to be testing. […] Cells are seeded in 96 well microtiter plates, at 5×10^3 cells per well in aliquots of 195 μl medium, and they are allowed to attach to the plate surface by growing in drug free medium for 18 hours. […] Optical densities are read on a automated spectrophotometric plate reader at a single wavelength of 490 nm. […]

{"molecule": "CSc1nccc(-c2c3ccc(C)nc3n3c(N)nccc23)n1", "readout.unit": "µM", "value.prefix": "≥", "CC50": 31}
{"molecule": "CSc1nccc(-c2c3c(O)ccnc3n3c(N)nccc23)n1.Cl", "readout.unit": "µM", "value.prefix": "=", "CC50": 24.6}
{"molecule": "Cl.Nc1nccc(-c2c3c(Cl)ccnc3n3c(N)nccc23)n1", "readout.unit": "µM", "value.prefix": "=", "CC50": 26}
{"molecule": "CSc1nccc(-c2c3cccnc3n3c(N)nccc23)n1.Cl", "readout.unit": "µM", "value.prefix": "=", "CC50": 29}
{"molecule": "CS(=O)(=O)c1nccc(-c2c3cccnc3n3c(N)nccc23)n1", "readout.unit": "µM", "value.prefix": "=", "CC50": 29.4}
{"molecule": "CSc1nccc(-c2c3c(Cl)ccnc3n3c(N)nccc23)n1.Cl", "readout.unit": "µM", "value.prefix": "=", "CC50": 26.4}
{"molecule": "CSc1nccc(-c2c3c(N)ccnc3n3c(N)nccc23)n1.Cl", "readout.unit": "µM", "value.prefix": "=", "CC50": 25.2}
{"molecule": "Nc1nccc(-c2c3cccnc3n3c(N)nccc23)n1 [Deoxyvariolin 4, deoxyvariolin B, reference compound]", "readout.unit": "µM", "value.prefix": "=", "CC50": 15.4}
{"molecule": "CSc1nccc(-c2c3cc4ccccc4nc3n3c(N)nccc23)n1 [Compound 18a]", "readout.unit": "µM", "value.prefix": "≥", "CC50": 27.9}

###

# System: HMEC1
# assay.details: Inhibition of cells growth by colorimetric (SRB) assay, HMEC1
# setup.conditions: read-out: LC50 H-MEC-1; SRB assay, 48 hours exposure

{"compound": "Nc1nccc(-c2c3cc4ccccc4nc3n3c(N)nccc23)n1 [Compound 19a]", "readout.unit": "nM", "CC50": 3820}
{"compound": "CCOc1nccc(-c2c3cccnc3n3c(N)nccc23)n1", "readout.unit": "nM", "CC50": 1260}
{"compound": "Cl.Nc1nccc(-c2c3cc4ccccc4nc3n3c(N)nccc23)n1", "readout.unit": "nM", "CC50": 1860}

###

# Tested on: SK-MEL-28
# assay.details: Inhibition of cells growth by colorimetric (SRB) assay, SK-MEL-28
# setup.conditions: read-out: LC50 MEL-28; SRB assay, 48 hours exposure
observed.property: CC50 (µM)

{"test.smiles": "COc1nccc(-c2c3cccnc3n3c(N)nccc23)n1", "reported.value": 1.79}
{"test.smiles": "Cl.Nc1nccc(-c2c3c(N)ccnc3n3c(N)nccc23)n1", "reported.value": 1.25}
{"test.smiles": "COc1ccnc2c1c(-c1ccnc(N)n1)c1ccnc(N)n12", "reported.value": 2.4}
{"test.smiles": "Cc1ccc2c(-c3ccnc(N)n3)c3ccnc(N)n3c2n1", "reported.value": 12.6}
{"test.smiles": "COc1ccnc2c1c(-c1ccnc(N)n1)c1ccnc(N)n12.Cl", "reported.value": 10.4}

###

# System: LoVo
# assay.details: Inhibition of cells growth by colorimetric (SRB) assay, LoVo
# setup.conditions: Homo sapiens, LoVo, 48 h, read-out: GI50 LOVO, SRB assay, 48 hours exposure
Could you please mark 1 for values of GI50 below 2 µM and -1 for values at or above it?

{"compound": "CC(C)c1c2cccnc2n2c(N)nccc12", "measured.on": "LoVo", "assigned.category": -1}
{"compound": "CSc1nccc2c(-c3cccs3)c3cccnc3n12", "measured.on": "LoVo", "assigned.category": -1}
{"compound": "COc1nccc(-c2c3c(O)ccnc3n3c(N)nccc23)n1", "measured.on": "LoVo", "assigned.category": -1}
{"compound": "COc1nccc(-c2c3cccnc3n3c(N)nccc23)n1.Cl", "measured.on": "LoVo", "assigned.category": 1}
{"compound": "Nc1nccc(-c2c3cccnc3n3ccccc23)n1", "measured.on": "LoVo", "assigned.category": -1}
{"compound": "COc1ccc2nc3c(cc2c1)c(-c1ccnc(SC)n1)c1ccnc(N)n13 [Compound 18b]", "measured.on": "LoVo", "assigned.category": -1}
{"compound": "Nc1nccc(-c2c3c(F)ccnc3n3c(N)nccc23)n1", "measured.on": "LoVo", "assigned.category": 1}
{"compound": "Nc1nccc(-c2c3cc(Cl)cnc3n3c(N)nccc23)n1", "measured.on": "LoVo", "assigned.category": -1}
{"compound": "CS(=O)(=O)c1nccc(-c2c3c(Cl)ccnc3n3c(N)nccc23)n1", "measured.on": "LoVo", "assigned.category": 1}
{"compound": "COc1nccc(-c2c3c(N)ccnc3n3c(N)nccc23)n1", "measured.on": "LoVo", "assigned.category": 1}
{"compound": "Cl.Nc1nccc(-c2c3cccnc3n3c(N)nccc23)n1", "measured.on": "LoVo", "assigned.category": 1}
{"compound": "CSc1nccc(-c2c3c(Cl)ccnc3n3c(N)nccc23)n1", "measured.on": "LoVo", "assigned.category": 1}
